These entries and their values trace back to ChEMBL document CHEMBL2062392.

Known pKi of a selection of compounds
- system: Stromelysin-1 (Homo sapiens)
- Sequence (P08254 whole entry): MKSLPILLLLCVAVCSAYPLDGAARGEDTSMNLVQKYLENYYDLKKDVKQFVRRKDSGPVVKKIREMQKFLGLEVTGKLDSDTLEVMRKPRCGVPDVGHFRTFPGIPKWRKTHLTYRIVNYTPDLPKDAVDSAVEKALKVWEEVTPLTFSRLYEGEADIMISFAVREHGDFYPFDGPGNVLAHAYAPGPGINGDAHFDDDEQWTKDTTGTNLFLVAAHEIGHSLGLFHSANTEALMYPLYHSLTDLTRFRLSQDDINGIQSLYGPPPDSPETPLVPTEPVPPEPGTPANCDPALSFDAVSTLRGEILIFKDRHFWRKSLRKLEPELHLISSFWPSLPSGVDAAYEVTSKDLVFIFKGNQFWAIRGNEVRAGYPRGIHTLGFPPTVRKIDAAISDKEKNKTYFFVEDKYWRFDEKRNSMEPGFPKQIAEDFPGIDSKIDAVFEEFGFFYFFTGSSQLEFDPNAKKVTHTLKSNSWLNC
Keep it numeric: pKi is minus log10 of the concentration in mol/L.

Solved cases below.
compound: O=S(=O)(CC1CS1)c1ccc(Oc2ccc(O)cc2)cc1 (racemic)
quantity-name: pKi
reported-value: 5.66

compound: O=S(=O)(CC1CS1)c1ccc(Oc2cccc(F)c2)cc1 (racemic)
quantity-name: pKi
reported-value: 4.57

compound: CC(C)Oc1ccc(Oc2ccc(S(=O)(=O)CC3CS3)cc2)cc1 (racemic)
quantity-name: pKi
reported-value: 4.77

compound: COCOc1ccc(Oc2ccc(S(=O)(=O)CC3CS3)cc2)cc1 (racemic)
quantity-name: pKi
reported-value: 4.92

## Input Provide the reported pKi (system: Stromelysin-1 (Homo sapiens)) for CS(=O)(=O)Oc1ccc(Oc2ccc(S(=O)(=O)CC3CS3)cc2)cc1 (racemic)
## Output 6.24

## Input Provide the reported pKi (system: Stromelysin-1 (Homo sapiens)) for O=S(=O)(CC1CS1)c1ccc(Oc2ccc(CO)cc2)cc1 (racemic)
## Output 5.39

* * *

- Test system: Liver
- assay-name: Half life in rat liver S9 fraction at 10 uM by UPLC analysis
- Type: ADME, subcellular
- condition-context: s9, 10 µM
Known t1/2 of a selection of compounds

compound: O=S(=O)(CC1CS1)c1ccc(Oc2cccc(F)c2)cc1 (racemic)
t1/2: 2.9 min

compound: COCOc1ccc(Oc2ccc(S(=O)(=O)CC3CS3)cc2)cc1 (racemic)
t1/2: 7.7 min

compound: O=S(=O)(CC1CS1)c1ccc(Oc2ccc(OC(F)(F)F)cc2)cc1 (racemic)
t1/2: 7.3 min

Next up:
## Input Identify measured t1/2 associated with O=S(=O)(CC1CS1)c1ccc(Oc2ccc(O)cc2)cc1 (racemic)
## Output 23 min

* * *

Matrix metalloproteinase-14 (Homo sapiens): recorded Ki for assorted compounds
Quick reminder: number only, in µM, skip the unit.

Solved cases below.
compound: CC(C)Oc1ccc(Oc2ccc(S(=O)(=O)CC3CS3)cc2)cc1 (racemic)
system: Matrix metalloproteinase-14 (Homo sapiens)
reported-value: 0.28
//
compound: O=S(=O)(CC1CS1)c1ccc(Oc2ccc(OC(F)(F)F)cc2)cc1 (racemic)
system: Matrix metalloproteinase-14 (Homo sapiens)
reported-value: 5.08
//
compound: O=S(=O)(CC1CS1)c1ccc(Oc2cccc(F)c2)cc1 (racemic)
system: Matrix metalloproteinase-14 (Homo sapiens)
reported-value: 0.19
//
compound: O=S(=O)(CC1CS1)c1ccc(Oc2ccc(O)cc2)cc1 (racemic)
system: Matrix metalloproteinase-14 (Homo sapiens)
reported-value: 0.09

## Input Identify measured Ki associated with COCOc1ccc(Oc2ccc(S(=O)(=O)CC3CS3)cc2)cc1 (racemic)
## Output 0.14

## Input Identify measured Ki associated with O=S(=O)(CC1CS1)c1ccc(Oc2ccc(CO)cc2)cc1 (racemic)
## Output 0.215

## Input Identify measured Ki associated with O=S(=O)(CC1CS1)c1ccc(Oc2ccccc2)cc1 (stereo not drawn)
## Output 0.037

## Input Identify measured Ki associated with O=S(=O)(CC1CS1)c1ccc(Oc2ccc(F)cc2)cc1 (racemic)
## Output 0.58

* * *

- Tested on: Liver
- assay-name: Half life in rat liver S9 fraction at 10 uM by UPLC analysis
- Format: ADME, subcellular
- condition-context: s9, 10 µM
The label depends only on t1/2: Condition met if it is at least 7 min, Condition not met if it is smaller.

Example results:
compound: O=S(=O)(CC1CS1)c1ccc(Oc2ccc(F)cc2)cc1 (racemic)
system: Liver
group: Condition not met
--
compound: O=S(=O)(CC1CS1)c1ccc(Oc2ccccc2)cc1 (stereo not given)
system: Liver
group: Condition not met
--
compound: O=S(=O)(CC1CS1)c1ccc(Oc2ccc(CO)cc2)cc1 (racemic)
system: Liver
group: Condition met

API: the following record is the query input.
## Input Say whether CS(=O)(=O)Oc1ccc(Oc2ccc(S(=O)(=O)CC3CS3)cc2)cc1 (racemic) shows t1/2 of 7 min or more.
## Output Condition met

* * *

Known log10(Ki) of a selection of molecules
- system: Matrix metalloproteinase-9 (Homo sapiens, UniProt P14780)
- Sequence (P14780 whole entry): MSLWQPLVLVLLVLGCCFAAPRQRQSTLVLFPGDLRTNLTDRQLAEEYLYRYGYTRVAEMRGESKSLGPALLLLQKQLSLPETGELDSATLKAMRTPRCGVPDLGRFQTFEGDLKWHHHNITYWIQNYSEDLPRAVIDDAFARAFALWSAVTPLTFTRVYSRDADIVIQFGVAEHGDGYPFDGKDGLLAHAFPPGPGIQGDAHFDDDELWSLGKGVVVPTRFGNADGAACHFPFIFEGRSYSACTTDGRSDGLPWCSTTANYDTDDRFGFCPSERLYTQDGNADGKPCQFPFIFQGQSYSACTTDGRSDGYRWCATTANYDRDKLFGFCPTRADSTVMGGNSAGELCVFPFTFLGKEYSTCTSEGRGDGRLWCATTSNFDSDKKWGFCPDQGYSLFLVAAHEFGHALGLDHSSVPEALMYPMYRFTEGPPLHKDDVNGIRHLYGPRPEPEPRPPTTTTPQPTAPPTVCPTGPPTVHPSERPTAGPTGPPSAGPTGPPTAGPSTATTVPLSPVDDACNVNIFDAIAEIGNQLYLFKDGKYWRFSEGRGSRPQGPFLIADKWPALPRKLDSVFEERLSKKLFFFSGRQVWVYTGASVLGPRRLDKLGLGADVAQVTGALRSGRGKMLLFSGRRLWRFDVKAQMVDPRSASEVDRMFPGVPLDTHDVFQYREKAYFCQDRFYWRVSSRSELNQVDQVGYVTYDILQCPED
Lab note - Ki converted to log10 from values in nM.

Solved cases below.
molecule: O=S(=O)(CC1CS1)c1ccc(Oc2ccc(I)cc2)cc1 (racemic)
log10(Ki): 2.46
//
molecule: CC(C)Oc1ccc(Oc2ccc(S(=O)(=O)CC3CS3)cc2)cc1 (racemic)
log10(Ki): 2.67

## Input Provide the reported log10(Ki) (system: Matrix metalloproteinase-9 (Homo sapiens, UniProt P14780)) for O=S(=O)(CC1CS1)c1ccc(Oc2cccc(F)c2)cc1 (racemic)
## Output 3.48

## Input Provide the reported log10(Ki) (system: Matrix metalloproteinase-9 (Homo sapiens, UniProt P14780)) for COCOc1ccc(Oc2ccc(S(=O)(=O)CC3CS3)cc2)cc1 (racemic)
## Output 2.20

## Input Provide the reported log10(Ki) (system: Matrix metalloproteinase-9 (Homo sapiens, UniProt P14780)) for O=S(=O)(CC1CS1)c1ccc(Oc2ccc(CO)cc2)cc1 (racemic)
## Output 2.59

## Input Provide the reported log10(Ki) (system: Matrix metalloproteinase-9 (Homo sapiens, UniProt P14780)) for O=S(=O)(CC1CS1)c1ccc(Oc2ccc(F)cc2)cc1 (racemic)
## Output 1.64

## Input Provide the reported log10(Ki) (system: Matrix metalloproteinase-9 (Homo sapiens, UniProt P14780)) for O=S(=O)(CC1CS1)c1ccc(Oc2ccc(OC(F)(F)F)cc2)cc1 (racemic)
## Output 2.97

* * *

- system: 72 kDa type IV collagenase (Homo sapiens)
- Sequence (P08253 whole entry): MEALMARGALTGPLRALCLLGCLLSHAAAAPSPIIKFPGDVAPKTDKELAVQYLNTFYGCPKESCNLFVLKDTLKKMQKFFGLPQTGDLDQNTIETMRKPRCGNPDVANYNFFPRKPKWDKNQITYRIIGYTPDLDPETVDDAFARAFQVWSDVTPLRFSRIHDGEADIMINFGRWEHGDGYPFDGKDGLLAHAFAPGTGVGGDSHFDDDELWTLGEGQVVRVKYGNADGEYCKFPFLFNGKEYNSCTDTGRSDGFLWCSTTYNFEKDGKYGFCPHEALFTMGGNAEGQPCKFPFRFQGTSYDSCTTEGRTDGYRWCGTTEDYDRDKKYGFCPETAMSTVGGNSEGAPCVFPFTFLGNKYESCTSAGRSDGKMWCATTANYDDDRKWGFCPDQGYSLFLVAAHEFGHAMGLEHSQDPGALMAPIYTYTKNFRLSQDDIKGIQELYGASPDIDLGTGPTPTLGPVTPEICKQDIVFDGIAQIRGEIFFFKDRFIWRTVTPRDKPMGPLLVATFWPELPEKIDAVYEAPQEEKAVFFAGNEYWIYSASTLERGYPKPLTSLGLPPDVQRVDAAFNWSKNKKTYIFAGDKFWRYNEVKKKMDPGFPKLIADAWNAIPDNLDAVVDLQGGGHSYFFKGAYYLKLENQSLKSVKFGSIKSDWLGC
pKi: −log10 of the molar value.
The label depends only on pKi: T if it is at least 7, F if it is smaller.

Example results:
compound: CC(C)Oc1ccc(Oc2ccc(S(=O)(=O)CC3CS3)cc2)cc1 (racemic)
system: 72 kDa type IV collagenase (Homo sapiens)
group: F
--
compound: O=S(=O)(CC1CS1)c1ccc(Oc2ccc(I)cc2)cc1 (racemic)
system: 72 kDa type IV collagenase (Homo sapiens)
group: F
--
compound: O=S(=O)(CC1CS1)c1ccc(Oc2ccc(O)cc2)cc1 (racemic)
system: 72 kDa type IV collagenase (Homo sapiens)
group: T

## Input Say whether O=S(=O)(CC1CS1)c1ccc(Oc2cccc(F)c2)cc1 (racemic) shows pKi of 7 or more.
## Output F

## Input Say whether COCOc1ccc(Oc2ccc(S(=O)(=O)CC3CS3)cc2)cc1 (racemic) shows pKi of 7 or more.
## Output F

* * *

- system: UniProt P03956
- Sequence (P03956 whole entry): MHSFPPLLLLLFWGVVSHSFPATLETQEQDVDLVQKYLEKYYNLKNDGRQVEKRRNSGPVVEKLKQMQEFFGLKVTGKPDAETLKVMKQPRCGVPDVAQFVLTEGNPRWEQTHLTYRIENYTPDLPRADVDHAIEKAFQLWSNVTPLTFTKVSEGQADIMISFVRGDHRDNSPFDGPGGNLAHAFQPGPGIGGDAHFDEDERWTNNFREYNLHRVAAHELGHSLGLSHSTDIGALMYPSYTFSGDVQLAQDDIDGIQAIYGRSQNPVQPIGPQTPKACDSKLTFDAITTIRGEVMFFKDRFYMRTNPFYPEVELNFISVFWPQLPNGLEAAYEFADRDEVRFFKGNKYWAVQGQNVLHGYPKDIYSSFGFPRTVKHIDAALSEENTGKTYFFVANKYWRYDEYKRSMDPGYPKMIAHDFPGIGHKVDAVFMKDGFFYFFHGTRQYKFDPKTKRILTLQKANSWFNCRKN
Known Ki of a selection of compounds
Quick reminder: number only, in µM, skip the unit.

## Input Identify measured Ki associated with O=S(=O)(CC1CS1)c1ccc(Oc2ccc(CO)cc2)cc1 (racemic)
## Output 205

## Input Identify measured Ki associated with O=S(=O)(CC1CS1)c1ccc(Oc2ccc(O)cc2)cc1 (racemic)
## Output 128

* * *

Matrilysin (Homo sapiens, UniProt P09237): recorded Ki for assorted compounds
Sequence (P09237 whole entry): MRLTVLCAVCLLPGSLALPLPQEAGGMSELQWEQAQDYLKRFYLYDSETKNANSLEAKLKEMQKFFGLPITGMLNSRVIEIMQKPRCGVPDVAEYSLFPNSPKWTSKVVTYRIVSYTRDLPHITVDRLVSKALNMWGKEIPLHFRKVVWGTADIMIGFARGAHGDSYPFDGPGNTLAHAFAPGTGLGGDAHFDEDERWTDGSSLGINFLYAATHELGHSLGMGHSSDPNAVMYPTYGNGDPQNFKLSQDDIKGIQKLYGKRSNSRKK
Quick reminder: number only, in µM, skip the unit.

compound: O=S(=O)(CC1CS1)c1ccc(Oc2ccc(O)cc2)cc1 (racemic)
unit-abbreviation: µM
Ki: 31

Next up:
## Input Identify measured Ki associated with O=S(=O)(CC1CS1)c1ccc(Oc2ccc(CO)cc2)cc1 (racemic)
## Output 48.5

* * *

72 kDa type IV collagenase (Homo sapiens): recorded pKi for assorted compounds
Keep it numeric: pKi is minus log10 of the concentration in mol/L.

compound: O=S(=O)(CC1CS1)c1ccc(Oc2ccc(OC(F)(F)F)cc2)cc1 (racemic)
system: 72 kDa type IV collagenase (Homo sapiens)
pKi: 6.96
//
compound: O=S(=O)(CC1CS1)c1ccc(Oc2ccc(CO)cc2)cc1 (racemic)
system: 72 kDa type IV collagenase (Homo sapiens)
pKi: 7.11

## Input Provide the reported pKi (system: 72 kDa type IV collagenase (Homo sapiens)) for O=S(=O)(CC1CS1)c1ccc(Oc2ccc(F)cc2)cc1 (racemic)
## Output 7.21
